# phosphorylation enrichment values compiled below
# Tested on: c-Abl (mouse)
# PROTOCOL NOTES: phosphorylation enrichment, bacterial display (enrichment ratio); higher = better substrate or ligand; peptides without Tyr show the background;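 note: 11-residue human phosphosite peptides and single-mutation variants displayed on the E. coli surface, counted by deep sequencing, each peptide's frequency after selection divided by its frequency in the unselected input library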;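 note: frequency after pTyr selection over input frequency; kinase dosed for 20-30% of maximal phosphorylation in three min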

# SEQUENCE INPUT, phosphorylation enrichment
data = [
    ("DEYLEYRRIVG [FAM221A_Y20]", 0.859),
    ("EAEPYYRSLRD [NPHS1_Y1139]", 0.709),
    ("KDHPDYKYQPR [SOX10_Y171]", 0.687),
    ("PIFEGYALPHA [ACTA1_Y171_YF]", 2.44),
    ("IPVNGYQPVPA [ROR2_Y824_V819I]", 0.592),
    ("GYRVYYTPDSR [PTPRF_Y451]", 1.89),
    ("IVFTSYVLTIL [TAS2R16_Y239_F240V]", 1.05),
    ("FQLENCCNGGG [INS_Y108_Y108C_YF]", 0.546),
    ("SLIERYEPSET [PLCD1_Y258]", 0.717),
    ("TLRETYGEMAD [ALB_Y108]", 0.885),
    ("RLPSGYGLAFR [DLK1_Y262_YF]", 0.889),
    ("LSSNLYYRWLT [CNGA3_Y168_P163L]", 12.6),
    ("PESIMYWKFTT [NTRK3_Y744_R745W]", 2.36),
    ("ESLSSYWESAK [APOC2_Y47]", 0.584),
    ("EVGRVYLFLQP [ITGA2B_Y360]", 0.884),
    ("VRFVDYVLFRS [FAM189B_Y361_S358F]", 0.764),
    ("QFPDVYAREEV [CRX_Y67_YF]", 0.68),
    ("PNRILYGDFQQ [MYH7_Y715_R719Q]", 0.549),
    ("EQPNPYMVLDI [ROCK2_Y1197_S1194P]", 0.575),
    ("DKVFTYIFIME [SCN4A_Y1074]", 0.968),
    ("YPQARYHWLVL [APTX_Y214_K211Q]", 0.744),
    ("IVAREYFSDAD [CAMK2A_Y106_E109D_YF]", 0.8),
    ("RSFLSYFTSHV [NEFL_Y442_P440L_YF]", 1.05),
    ("DGMADYSDPSY [CDC5L_Y459]", 0.859),
    ("SVVVPYERPEV [TP53_Y220_P222R]", 0.731),
    ("CDDGKYVYVVT [RPS6KA3_Y488_Y483C]", 1.05),
    ("EKQVAYCPSGK [ROS1_Y2323]", 0.567),
    ("VATSWYRSPEL [CDKL5_Y177_R175S]", 0.427),
    ("AKNKDYMSFIR [GNE_Y197_I200F]", 0.661),
    ("NIEPIYLNMLL [ATR_Y317_V316I]", 15.1),
    ("DPADRYLTEQY [CDKL5_Y286_C291Y]", 0.806),
    ("ADRSCYDLSCH [GARS1_Y467]", 0.631),
    ("RFLRGYRQFAF [HLA-A_Y137_D140Y_YF]", 0.661),
    ("SKLTIYDARPS [MTM1_Y277]", 0.593),
    ("VRQQVYKKVEE [HADHA_Y283]", 0.446),
    ("PVQAAYKKVVA [HBB_Y131_Q132K]", 0.73),
    ("GTCGGYCSVLG [RAB18_Y202_A198T]", 0.401),
    ("LALTVYADCLA [ABCA4_Y2063_G2059A]", 1.09),
    ("AEFGLYGAMVR [VSX2_Y222_YF]", 0.678),
    ("QTENKYVSVSG [EIF2AK3_Y565_D566V]", 0.938),
    ("DTNIAYCLHPR [POMT1_Y581_W582C]", 0.753),
    ("WHHIFYNELRV [ACTG1_Y91_T89I]", 0.805),
    ("NVADHYRVFKP [ATP6V0D2_Y271_G272R_YF]", 0.686),
    ("MALDRYVAICK [OR2B11_Y127]", 0.863),
    ("KMATAYIRRMS [BCO1_Y264]", 0.544),
    ("LGSNTYPFLLM [SAG_Y120_T125M]", 1.05),
    ("AIMSFYATLID [RYR1_Y2426_A2428T]", 1.07),
    ("GPSTPYTKSKC [SMARCC2_Y324_R329C]", 0.55),
    ("DEFLEHRRIVG [FAM221A_Y20_Y20H_YF]", 0.58),
    ("LNLDTYQKRLR [PLA2G2D_Y126_R121L]", 0.502),
    ("MSNFAYVKREV [SCN1A_Y1694]", 0.516),
    ("TFRPPYFHRNC [HGD_Y333_YF]", 0.635),
]

====

# TARGET: MERTK (UniProt Q12866)
# Sequence (Q12866 whole entry, looked up): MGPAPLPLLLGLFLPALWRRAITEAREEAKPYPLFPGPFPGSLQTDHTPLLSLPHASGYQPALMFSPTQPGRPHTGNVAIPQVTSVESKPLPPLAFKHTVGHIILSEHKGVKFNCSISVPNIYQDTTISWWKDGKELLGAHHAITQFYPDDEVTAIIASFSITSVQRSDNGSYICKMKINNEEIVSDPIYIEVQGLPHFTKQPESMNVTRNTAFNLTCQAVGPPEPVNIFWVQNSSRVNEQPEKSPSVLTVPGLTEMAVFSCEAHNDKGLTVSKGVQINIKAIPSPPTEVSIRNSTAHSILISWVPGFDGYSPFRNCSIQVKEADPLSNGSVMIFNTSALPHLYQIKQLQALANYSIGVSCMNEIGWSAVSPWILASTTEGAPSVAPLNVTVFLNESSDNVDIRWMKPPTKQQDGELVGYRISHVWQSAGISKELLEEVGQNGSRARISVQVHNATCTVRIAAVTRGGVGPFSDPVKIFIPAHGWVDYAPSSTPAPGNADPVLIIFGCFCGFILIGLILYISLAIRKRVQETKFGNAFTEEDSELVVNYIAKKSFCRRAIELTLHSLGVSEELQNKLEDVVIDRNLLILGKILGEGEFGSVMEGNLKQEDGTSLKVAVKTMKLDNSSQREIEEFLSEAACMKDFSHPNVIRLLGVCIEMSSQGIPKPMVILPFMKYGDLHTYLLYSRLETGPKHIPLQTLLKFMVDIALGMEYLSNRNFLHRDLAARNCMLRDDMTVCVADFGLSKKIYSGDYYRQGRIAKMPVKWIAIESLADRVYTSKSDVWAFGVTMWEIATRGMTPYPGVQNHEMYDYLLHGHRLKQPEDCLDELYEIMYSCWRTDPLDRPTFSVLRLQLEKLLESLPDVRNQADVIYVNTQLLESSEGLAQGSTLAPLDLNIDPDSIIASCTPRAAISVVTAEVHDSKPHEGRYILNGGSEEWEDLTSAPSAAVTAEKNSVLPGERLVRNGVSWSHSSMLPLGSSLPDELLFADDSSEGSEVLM
# PROTOCOL NOTES: phosphorylation enrichment, bacterial display (enrichment ratio); higher = better substrate or ligand; peptides without Tyr show the background

# SEQUENCE INPUT, TARGET, phosphorylation enrichment
records = [
    ("LDYNEYVRDLN [HPRT1_Y198_F199V]", "MERTK (UniProt Q12866)", 0.441),
    ("EYKKKYSDADI [CKAP5_Y1860]", "MERTK (UniProt Q12866)", 0.383),
    ("IDGLEYLHSQG [STK11_Y166]", "MERTK (UniProt Q12866)", 0.368),
    ("RILDVYIFLGP [GAA_Y340_G335R]", "MERTK (UniProt Q12866)", 0.492),
    ("RDMNAYIRPSP [MMAA_Y207]", "MERTK (UniProt Q12866)", 1.02),
    ("ERIEFYELNKK [PMM2_Y145_D148N]", "MERTK (UniProt Q12866)", 0.506),
    ("KSVITYSPTTG [ITGB3BP_Y32]", "MERTK (UniProt Q12866)", 0.403),
    ("PYYTSYPPSPD [GDAP2_Y491]", "MERTK (UniProt Q12866)", 9.55),
    ("SLEKGYELPDG [ACTC1_Y242_S241G]", "MERTK (UniProt Q12866)", 0.35),
    ("SGDVQYRSSVR [FREM2_Y2158_T2153S]", "MERTK (UniProt Q12866)", 0.348),
    ("PVDGEYFTLQI [TP53_Y327_L323V]", "MERTK (UniProt Q12866)", 0.623),
    ("PDGVEYLKNNP [GRIN3A_Y831_D835N]", "MERTK (UniProt Q12866)", 0.546),
    ("RLPSGYGLAFR [DLK1_Y262_YF]", "MERTK (UniProt Q12866)", 0.396),
]

====

# Test system: Fer (mouse)
# PROTOCOL NOTES: phosphorylation enrichment, bacterial display (enrichment ratio); higher = better substrate or ligand; peptides without Tyr show the background

# SEQUENCE INPUT, phosphorylation enrichment
records = [
    ("AGKEEYSAMRD [HRAS_Y64_Q61K]", 0.481),
    ("PINEPYGDDMD [JUP_Y693]", 0.837),
    ("RRIHNYRGHLW [VHL_Y112_S111N]", 0.27),
    ("LVPPRYARSEI [PKP2_Y194]", 0.697),
    ("QGRQTYLPQPA [DDR2_Y813]", 0.408),
    ("ISHVAYRVLGK [TRRAP_Y892]", 0.338),
    ("CTTSHYNYMCN [TP53_Y234_I232S]", 0.55),
    ("KWKQKYEESQS [MYH6_Y1462_E1457K]", 0.405),
    ("QQLQGYVPSNY [FRK_Y99_I100V]", 0.45),
    ("RVSSVYTRSTG [CCR5_Y339_A335V]", 0.984),
    ("FQLENCCNGGG [INS_Y108_Y108C_YF]", 0.564),
    ("NPQKSYLIRLF [WAS_Y83_F84L_YF]", 0.448),
    ("IVFTSYVLTIL [TAS2R16_Y239_F240V]", 0.731),
    ("RILDVYIFLGP [GAA_Y340_G335R]", 0.584),
    ("DQVEQYNKELE [LMNA_Y259_K260N]", 0.494),
    ("LHSEAYLKYNE [PBRM1_Y1610_I1614N]", 0.311),
    ("PSFSEYASVQV [SIRPA_Y496]", 3.49),
]
